Consider the following IC50 values measured on transcription apparatus of the influenza virus (Influenza A virus).
Return type: number; implicit unit µM.

[
  {
    "Molecule": "CC(C)/C=C1\\N=C(CC(C)C)C(=O)N(O)C1=O",
    "Measurement Units": "µM",
    "IC50": 5
  },
  {
    "Molecule": "O=C1C(Cc2ccccc2)=N/C(=C\\c2ccc(F)cc2)C(=O)N1O [Example 15A]",
    "Measurement Units": "µM",
    "IC50": 3.5
  },
  {
    "Molecule": "COc1ccc(/C=C2\\N=C(Cc3ccccc3)C(=O)N(O)C2=O)cc1",
    "Measurement Units": "µM",
    "IC50": 2.8
  },
  {
    "Molecule": "CC(C)CC1=N/C(=C\\c2ccccc2)C(=O)N(O)C1=O",
    "Measurement Units": "µM",
    "IC50": 4.8
  }
]

Look up and state reported IC50 for O=C1C(Cc2ccc(F)cc2)=N/C(=C\c2ccccc2)C(=O)N1O [Example 15B] 6.5

----------
Target Under Test: transcription apparatus of the influenza virus (Influenza A virus, UniProt P03433)
Measured pIC50 by item
Notebook: values listed as pIC50 are -log10 of the concentration (mol/L).

The cases that follow already have their pIC50 on record.
[
  {
    "Molecule": "CC(C)CC1=N/C(=C\\c2ccc(F)cc2)C(=O)N(O)C1=O [Example 9]",
    "pIC50": 6.05
  },
  {
    "Molecule": "COc1ccc(/C=C2\\N=C(CC(C)C)C(=O)N(O)C2=O)cc1 [Example 12]",
    "pIC50": 6.10
  },
  {
    "Molecule": "CC(C)CC1=N/C(=C\\c2ccccc2F)C(=O)N(O)C1=O [Example 10]",
    "pIC50": 5.14
  }
]

Report pIC50 under test system transcription apparatus of the influenza virus (Influenza A virus, UniProt P03433) for CC(C)CC1=N/C(=C\c2cccc(F)c2)C(=O)N(O)C1=O [Example 11] . 5.82

Report pIC50 under test system transcription apparatus of the influenza virus (Influenza A virus, UniProt P03433) for CC(C)CC1NC(Cc2ccc(F)cc2)C(=O)N(O)C1=O (centres unmarked) [Example 16] . 4.07
